Source: patent US20250122183A1

- Experimental system: KAT8 Full length enzyme (Homo sapiens (Human))
- Sequence (Q9H7Z6 whole entry): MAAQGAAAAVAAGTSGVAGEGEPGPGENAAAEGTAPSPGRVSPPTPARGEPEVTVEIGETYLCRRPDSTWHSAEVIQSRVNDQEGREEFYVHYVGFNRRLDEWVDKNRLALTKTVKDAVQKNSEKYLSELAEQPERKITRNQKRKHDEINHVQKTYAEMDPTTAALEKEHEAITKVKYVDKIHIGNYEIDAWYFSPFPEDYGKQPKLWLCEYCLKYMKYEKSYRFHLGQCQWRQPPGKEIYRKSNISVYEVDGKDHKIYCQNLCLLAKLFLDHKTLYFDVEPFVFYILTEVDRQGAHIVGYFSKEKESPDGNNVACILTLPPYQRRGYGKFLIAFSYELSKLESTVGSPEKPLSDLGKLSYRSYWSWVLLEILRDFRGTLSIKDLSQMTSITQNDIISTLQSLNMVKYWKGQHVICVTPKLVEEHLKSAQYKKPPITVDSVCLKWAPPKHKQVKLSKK
- Protocol details: KAT8 assay (SAMDI-MS acetylation of H3 1-21 peptide)
- Assay type: biochemical
- Particulars: Morrison equation fit; replicate number in parentheses; read-out: KAT8 Ki (nM) (replicate number)
Measured Ki, listed per entry.
The answer is to be given in nM; state only the numeric part.

Answered examples (3):
• COc1cccc(OC)c1S(=O)(=O)Nc1noc2cc(NC3CCC3)cc(OC)c12 = 11500
• COc1cc2c(NS(=O)(=O)c3c(OC)cc(C4COCCN4C)cc3OC)noc2cc1Nc1cc(C2CC2)[nH]n1 (single isomer, unassigned) = 3370
• COc1ccccc1S(=O)(=O)Nc1noc2cc(Nc3cc[nH]n3)cc(OC)c12 = 1190

For the next question, use this compound.
Ask: Form field: reported Ki of COc1cc2c(NS(=O)(=O)c3c(OC)cc(-c4ccncc4)cc3OC)noc2cc1Nc1cc(C2CC2)n[nH]1
Result: 640
